# Test: Pharmacokinetic parameters following intravenous and oral administration in rats
# Type: in vivo, male Wistar rats
# Study Conditions: oral administration (p.o.)
Structures can show the parent of a compound that is named as a salt.
Experimental Readout: F (%)

Consider the following illustrative entries.
• CCCN1CCN(c2ccc(-c3ccc(Cl)cc3N3CCCC(n4ncc(C(=O)O)c4C(F)F)C3)cc2)CC1 (single isomer, unassigned) [Example 4, hydrochloride] = 59.9
• O=C(O)c1cnn(C2CCCN(c3cc(Cl)ccc3-c3ccc(N4CCN(CC5CC5)CC4)cc3)C2)c1C(F)F (single isomer, unassigned) [Example 5, hydrochloride] = 58.2
• O=C(O)c1cnn(-c2cccc(-c3cc(Cl)ccc3-c3ccc(N4CCN(CC5CC5)CC4)cc3)n2)c1C(F)(F)F [Comparative Example 174 (WO2012/058132), reference compound] = 81.8
• O=C(O)c1cnn(C2CCCN(c3cc(Cl)ccc3-c3ccc(N4CCN(CC(F)(F)F)CC4)cc3)C2)c1C(F)F (single isomer, unassigned) [Example 6] = 91.7
• CC(C)CN1CCN(c2ccc(-c3ccc(Cl)cc3N3CCC[C@@H](n4ncc(C(=O)O)c4C(F)F)C3)cc2)CC1 (single isomer, unassigned) [Example 2] = 53.3
• CC(C)CN1CCN(c2ccc(-c3ccc(Cl)cc3N3CCCC(n4ncc(C(=O)O)c4C(F)F)C3)cc2)CC1 (single isomer, unassigned) [Example 1, hydrochloride] = 31.4

P = O=C(O)c1cnn(C2CCCN(c3cc(Cl)ccc3-c3ccc(N4CCN(CC5CC5)CC4)cc3)C2)c1C(F)(F)F (single isomer, unassigned) [Example 10, hydrochloride]
Q = O=C(O)c1cnn(C2CCCN(c3cc(Cl)ccc3-c3ccc(N4CCN(CC(F)(F)F)CC4)cc3)C2)c1C(F)F (single isomer, unassigned) [Example 7]
R = CC(C)CN1CCN(c2ccc(-c3ccc(Cl)cc3N3CCCC(n4ncc(C(=O)O)c4C(F)(F)F)C3)cc2)CC1 (single isomer, unassigned) [Example 9, hydrochloride]
Prompt: // smallest F at index 0, largest at the end Put the labels in the requested order and write them down.
Response: P, Q, R
(P: 37.4%, Q: 56.1%, R: 82.1%)
